src = ChEMBL document CHEMBL1130164

target: Protein kinase C beta type (Homo sapiens); test: Inhibitory concentration against recombinant human Protein kinase C beta 2 isozyme
Sequence (P05771 whole entry): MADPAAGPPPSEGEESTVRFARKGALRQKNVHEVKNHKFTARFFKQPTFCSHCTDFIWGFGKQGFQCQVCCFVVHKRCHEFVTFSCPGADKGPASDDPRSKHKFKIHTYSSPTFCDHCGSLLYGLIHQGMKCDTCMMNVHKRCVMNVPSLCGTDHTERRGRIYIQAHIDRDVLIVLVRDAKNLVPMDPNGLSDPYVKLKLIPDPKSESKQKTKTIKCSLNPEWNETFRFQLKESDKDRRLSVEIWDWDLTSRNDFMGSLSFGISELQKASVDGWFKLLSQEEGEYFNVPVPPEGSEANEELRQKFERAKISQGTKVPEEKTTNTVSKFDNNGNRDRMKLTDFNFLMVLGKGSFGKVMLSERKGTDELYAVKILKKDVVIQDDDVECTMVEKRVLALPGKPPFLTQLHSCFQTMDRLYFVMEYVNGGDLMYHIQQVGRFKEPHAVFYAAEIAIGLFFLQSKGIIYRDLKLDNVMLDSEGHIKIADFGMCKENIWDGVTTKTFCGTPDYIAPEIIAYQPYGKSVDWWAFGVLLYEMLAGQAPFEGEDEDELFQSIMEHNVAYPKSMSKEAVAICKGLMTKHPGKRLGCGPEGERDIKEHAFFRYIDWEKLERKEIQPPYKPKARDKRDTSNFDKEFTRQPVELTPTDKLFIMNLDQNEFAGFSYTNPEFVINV
readoutLabel: IC50 (nM)
Enter your answer as a number in nM; do not include the unit.

Here is how some molecules turned out for IC50.
| molecule | reported |
| --- | --- |
| CC(=O)N1C[C@@H](NC(=O)c2ccc(O)cc2)[C@H](OC(=O)c2cc(O)c(C(=O)c3c(O)cccc3C(=O)O)c(O)c2)C1 | 820 |
| NC[C@H]1C[C@@H](NC(=O)c2ccc(O)cc2)[C@H](OC(=O)c2cc(O)c(C(=O)c3c(O)cccc3C(=O)O)c(O)c2)C1 | 4 |
| CNC(=O)N1C[C@@H](NC(=O)c2ccc(O)cc2)[C@H](OC(=O)c2cc(O)c(C(=O)c3c(O)cccc3C(=O)O)c(O)c2)C1 | 1800 |
| O=C(N[C@@H]1C2CCC(C2)[C@H]1OC(=O)c1cc(O)c(C(=O)c2c(O)cccc2C(=O)O)c(O)c1)c1ccc(O)cc1 (some centres not stated) | 30 |
| CC(C)N1C[C@@H](NC(=O)c2ccc(O)cc2)[C@H](OC(=O)c2cc(O)c(C(=O)c3c(O)cccc3C(=O)O)c(O)c2)C1 | 70 |
| O=C(N[C@@H]1C[C@@H](O)C[C@H]1OC(=O)c1cc(O)c(C(=O)c2c(O)cccc2C(=O)O)c(O)c1)c1ccc(O)cc1 | 20 |

From here, focus on the item given below.
The molecule NC[C@@H]1C[C@@H](NC(=O)c2ccc(O)cc2)[C@H](OC(=O)c2cc(O)c(C(=O)c3c(O)cccc3C(=O)O)c(O)c2)C1 showed IC50 equal to 5
